Hey, just so you know, these numbers are from patent US5591714A.

System: six vancomycin-susceptible strains of staphylococci and enterococci
assay_remarks: Effect of human serum on the MIC, serial dilution assay
Type: cell-based
applied_conditions: presence (+) of human serum, broth supplemented with human serum to 40%
Readings of MIC determined in presence of human serum for the listed molecules
I only need the number, thanks.

Solved entries (count: 4):
CCCCCCCCN[C@@]1(C)C[C@H](O[C@H]2[C@H](Oc3c4cc5cc3Oc3ccc(cc3Cl)[C@@H](O[C@H]3C[C@](C)(N)[C@@H](O)[C@H](C)O3)[C@@H]3NC(=O)[C@H](NC(=O)[C@@H]5NC(=O)[C@H](CC(N)=O)NC(=O)[C@H](NC(=O)[C@@H](CC(C)C)NC)[C@H](O)c5ccc(c(Cl)c5)O4)c4ccc(O)c(c4)-c4c(O)cc(O)cc4[C@@H](C(=O)O)NC3=O)O[C@H](CO)[C@@H](O)[C@@H]2O)O[C@@H](C)[C@@H]1O : 0.43
CNC(CC(C)C)C(=O)NC1C(=O)NC(CC(N)=O)C(=O)NC2C(=O)NC3C(=O)NC(C(=O)NC(C(=O)O)c4cc(O)cc(O)c4-c4cc3ccc4O)C(OC3CC(C)(N)C(O)C(C)O3)c3ccc(c(Cl)c3)Oc3cc2cc(c3OC2OC(CO)C(O)C(O)C2OC2CC(C)(NCc3ccc(Br)cc3)C(O)C(C)O2)Oc2ccc(cc2Cl)C1O (centres unmarked) : 1.0
CCCCCCCCCCN[C@@]1(C)C[C@H](O[C@H]2[C@H](Oc3c4cc5cc3Oc3ccc(cc3Cl)[C@@H](O[C@H]3C[C@](C)(N)[C@@H](O)[C@H](C)O3)[C@@H]3NC(=O)[C@H](NC(=O)[C@@H]5NC(=O)[C@H](CC(N)=O)NC(=O)[C@H](NC(=O)[C@@H](CC(C)C)NC)[C@H](O)c5ccc(c(Cl)c5)O4)c4ccc(O)c(c4)-c4c(O)cc(O)cc4[C@@H](C(=O)O)NC3=O)O[C@H](CO)[C@@H](O)[C@@H]2O)O[C@@H](C)[C@@H]1O : 0.66
CN[C@H](CC(C)C)C(=O)N[C@H]1C(=O)N[C@@H](CC(N)=O)C(=O)N[C@H]2C(=O)N[C@H]3C(=O)N[C@H](C(=O)N[C@H](C(=O)O)c4cc(O)cc(O)c4-c4cc3ccc4O)[C@H](O[C@H]3C[C@](C)(N)[C@@H](O)[C@H](C)O3)c3ccc(c(Cl)c3)Oc3cc2cc(c3O[C@@H]2O[C@H](CO)[C@@H](O)[C@H](O)[C@H]2O[C@H]2C[C@](C)(N)[C@@H](O)[C@H](C)O2)Oc2ccc(cc2Cl)[C@H]1O [Compound A82846B, A82846B, reference compound] : 0.75

Shifting focus to the molecule that follows.
What MIC determined in presence of human serum value was documented for this molecule, CNC(CC(C)C)C(=O)NC1C(=O)NC(CC(N)=O)C(=O)NC2C(=O)NC3C(=O)NC(C(=O)NC(C(=O)O)c4cc(O)cc(O)c4-c4cc3ccc4O)C(OC3CC(C)(N)C(O)C(C)O3)c3ccc(c(Cl)c3)Oc3cc2cc(c3OC2OC(CO)C(O)C(O)C2OC2CC(C)(NCc3ccc(Cl)cc3)C(O)C(C)O2)Oc2ccc(cc2Cl)C1O (centres unmarked) ?
1.5

---

Tested on: Staphylococcus aureus S13E
Format: cell-based
Method: The formula I compounds have in vitro and in vivo activity against Gram-positive pathogenic bacteria. The MIC's were determined using a standard agar-dilution assays.
assay_readout: MIC

CCN(CC)c1ccc(CNC2(C)CC(OC3C(Oc4c5cc6cc4Oc4ccc(cc4Cl)C(OC4CC(C)(N)C(O)C(C)O4)C4NC(=O)C(NC(=O)C6NC(=O)C(CC(N)=O)NC(=O)C(NC(=O)C(CC(C)C)NC)C(O)c6ccc(c(Cl)c6)O5)c5ccc(O)c(c5)-c5c(O)cc(O)cc5C(C(=O)O)NC4=O)OC(CO)C(O)C3O)OC(C)C2O)cc1 (centres unmarked) : 1 µg/mL

Which MIC is listed for CCCCCN(C)[C@H](CC(C)C)C(=O)N[C@H]1C(=O)N[C@@H](CC(N)=O)C(=O)N[C@H]2C(=O)N[C@H]3C(=O)N[C@H](C(=O)N[C@H](C(=O)O)c4cc(O)cc(O)c4-c4cc3ccc4O)[C@H](O[C@H]3C[C@](C)(N)[C@@H](O)[C@H](C)O3)c3ccc(cc3)Oc3cc2cc(c3O[C@@H]2O[C@H](CO)[C@@H](O)[C@H](O)[C@H]2O[C@H]2C[C@](C)(N)[C@@H](O)[C@H](C)O2)Oc2ccc(cc2Cl)[C@H]1O ?
.25 µg/mL

Name the reported MIC value associated with the molecule CNC(CC(C)C)C(=O)NC1C(=O)NC(CC(N)=O)C(=O)NC2C(=O)NC3C(=O)NC(C(=O)NC(C(=O)O)c4cc(O)cc(O)c4-c4cc3ccc4O)C(OC3CC(C)(N)C(O)C(C)O3)c3ccc(c(Cl)c3)Oc3cc2cc(c3OC2OC(CO)C(O)C(O)C2OC2CC(C)(NCc3cccc(Cl)c3)C(O)C(C)O2)Oc2ccc(cc2Cl)C1O (centres unmarked)
.5 µg/mL

Which MIC is listed for CNC(CC(C)C)C(=O)NC1C(=O)NC(CC(N)=O)C(=O)NC2C(=O)NC3C(=O)NC(C(=O)NC(C(=O)O)c4cc(O)cc(O)c4-c4cc3ccc4O)C(OC3CC(C)(N)C(O)C(C)O3)c3ccc(c(Cl)c3)Oc3cc2cc(c3OC2OC(CO)C(O)C(O)C2OC2CC(C)(NCc3ccc(Br)cc3)C(O)C(C)O2)Oc2ccc(cc2Cl)C1O (centres unmarked) ?
1 µg/mL

Recorded MIC for CNC(CC(C)C)C(=O)NC1C(=O)NC(CC(N)=O)C(=O)NC2C(=O)NC3C(=O)NC(C(=O)NC(C(=O)O)c4cc(O)cc(O)c4-c4cc3ccc4O)C(OC3CC(C)(NCc4ccccc4)C(O)C(C)O3)c3ccc(cc3)Oc3cc2cc(c3OC2OC(CO)C(O)C(O)C2O)Oc2ccc(cc2Cl)C1O (centres unmarked) , please?
2 µg/mL

Recorded MIC for CNC(CC(C)C)C(=O)NC1C(=O)NC(CC(N)=O)C(=O)NC2C(=O)NC3C(=O)NC(C(=O)NC(C(=O)O)c4cc(O)cc(O)c4-c4cc3ccc4O)C(OC3CC(C)(N)C(O)C(C)O3)c3ccc(c(Cl)c3)Oc3cc2cc(c3OC2OC(CO)C(O)C(O)C2OC2CC(C)(NCc3ccccc3Cl)C(O)C(C)O2)Oc2ccc(cc2Cl)C1O (centres unmarked) , please?
1 µg/mL

Using the record for CCCCCCC(=O)NC1(C)CC(OC2c3ccc(c(Cl)c3)Oc3cc4cc(c3OC3OC(CO)C(O)C(O)C3OC3CC(C)(N)C(O)C(C)O3)Oc3ccc(cc3Cl)C(O)C(NC(=O)C(CC(C)C)NC)C(=O)NC(CC(N)=O)C(=O)NC4C(=O)NC3C(=O)NC2C(=O)NC(C(=O)O)c2cc(O)cc(O)c2-c2cc3ccc2O)OC(C)C1O (centres unmarked) , report its MIC.
2 µg/mL

Param item = CCCCCNC1(C)CC(OC2c3ccc(cc3)Oc3cc4cc(c3O)Oc3ccc(cc3Cl)C(O)C(NC(=O)C(CC(C)C)NC)C(=O)NC(CC(N)=O)C(=O)NC4C(=O)NC3C(=O)NC2C(=O)NC(C(=O)O)c2cc(O)cc(O)c2-c2cc3ccc2O)OC(C)C1O (centres unmarked) ; retrieve measured MIC.
4 µg/mL

Endpoint output: MIC of CCCCCCCCN[C@@]1(C)C[C@H](O[C@H]2[C@H](Oc3c4cc5cc3Oc3ccc(cc3Cl)[C@@H](O)[C@@H](NC(=O)[C@@H](CC(C)C)NC)C(=O)N[C@@H](CC(N)=O)C(=O)N[C@H]5C(=O)N[C@H]3C(=O)N[C@H](C(=O)N[C@H](C(=O)O)c5cc(O)cc(O)c5-c5cc3ccc5O)[C@H](O[C@H]3C[C@](C)(N)[C@@H](O)[C@H](C)O3)c3ccc(cc3)O4)O[C@H](CO)[C@@H](O)[C@@H]2O)O[C@@H](C)[C@@H]1O . Value?
.5 µg/mL

What value of measured MIC is listed for CN[C@H](CC(C)C)C(=O)N[C@H]1C(=O)N[C@@H](CC(N)=O)C(=O)N[C@H]2C(=O)N[C@H]3C(=O)N[C@H](C(=O)N[C@H](C(=O)O)c4cc(O)cc(O)c4-c4cc3ccc4O)[C@H](O[C@H]3C[C@](C)(NCc4ccc(Cl)cc4)[C@@H](O)[C@H](C)O3)c3ccc(cc3)Oc3cc2cc(c3O[C@@H]2O[C@H](CO)[C@@H](O)[C@H](O)[C@H]2O[C@H]2C[C@](C)(NCc3ccc(Cl)cc3)[C@@H](O)[C@H](C)O2)Oc2ccc(cc2Cl)[C@H]1O ?
2 µg/mL

Which MIC value belongs to CCCCCN[C@@]1(C)C[C@H](O[C@H]2[C@H](Oc3c4cc5cc3Oc3ccc(cc3Cl)[C@@H](O)[C@@H](NC(=O)[C@@H](CC(C)C)N(C)CCCCC)C(=O)N[C@@H](CC(N)=O)C(=O)N[C@H]5C(=O)N[C@H]3C(=O)N[C@H](C(=O)N[C@H](C(=O)O)c5cc(O)cc(O)c5-c5cc3ccc5O)[C@H](O[C@H]3C[C@](C)(N)[C@@H](O)[C@H](C)O3)c3ccc(cc3)O4)O[C@H](CO)[C@@H](O)[C@@H]2O)O[C@@H](C)[C@@H]1O ?
1 µg/mL
